Test: Phase 1 first-in-human study, plasma pharmacokinetics
Type: in vivo
Details: male, human, plasma, po, 400 mg, single 400 mg oral solution, male fasted; read-out: AUClast
Procedure: Safety, tolerability, PK, and BTKO were assessed for six doses of compound of Formula (III) oral solution (4, 12, 36, 100, 200, 400 mg) in participants under fasted conditions. The SAD part comprised 10 cohorts of 8 participants each (FIG. 1). […] Safety, tolerability, and PK of a solid dose formulation of compound of Formula (III) were assessed in an additional male cohort (Cohort 10) that received 3×35 mg (105 mg) of compound of Formula (III) in the fasted state. […]
assay.readout: AUC(0-t)
Note to self: number, then unit, no commentary.

Lookup: Return AUC(0-t) for the following compound: C=CC(=O)N[C@H]1CCC[C@H]1NC(=O)c1sc2nccc3c2c1NC(=O)N3c1cnc(CC(C)C)cc1C (atropisomer, axis not shown) [compound of Formula (III)]
Found: 3830 ng·h/mL

* * *

Assay: Phase 1 first-in-human study, plasma pharmacokinetics
Assay type: in vivo
Details: male, human, plasma, po, 105 mg, single 105 mg (3 × 35 mg) oral capsule, male fasted
assay.readout: Cmax (µg/mL)
Give the quantity in µg/mL, number only.

Lookup: Identify the reported Cmax for the following entry. C=CC(=O)N[C@H]1CCC[C@H]1NC(=O)c1sc2nccc3c2c1NC(=O)N3c1cnc(CC(C)C)cc1C (atropisomer, axis not shown)
Found: 0.345

* * *

Experiment: Phase 1 first-in-human study, plasma pharmacokinetics
Format: in vivo
Conditions: female, human, plasma, po, 100 mg, single 100 mg oral solution, female fasted; read-out: AUC0-24 h
assay.readout: AUC(0-t)
Answer format: number, then unit.

Lookup: Name the recorded AUC(0-t) of the item C=CC(=O)N[C@H]1CCC[C@H]1NC(=O)c1sc2nccc3c2c1NC(=O)N3c1cnc(CC(C)C)cc1C (atropisomer, axis not shown) [compound of Formula (III)] in your answer.
Found: 1420 ng·h/mL

* * *

Assay: Plasma protein binding, equilibrium dialysis
Assay type: in vitro ADME, human
Conditions: human, plasma; 0.25 μM; read-out: % Free in plasma
assay.readout: fraction unbound at 0.25 μM

Lookup: // fetch fraction unbound at 0.25 μM given entry C=CC(=O)N[C@H]1CCC[C@H]1NC(=O)c1sc2nccc3c2c1NC(=O)N3c1cnc(CC(C)C)cc1C (atropisomer, axis not shown) [compound of Formula (III)]
Found: 0.0169

* * *

Test: Phase 1 first-in-human study, plasma pharmacokinetics
Assay type: in vivo
Conditions: male, human, plasma, po, single 4 to 400 mg oral solution, male fasted; read-out: median tmax across doses
assay.readout: Tmax

Lookup: # return recorded Tmax for input C=CC(=O)N[C@H]1CCC[C@H]1NC(=O)c1sc2nccc3c2c1NC(=O)N3c1cnc(CC(C)C)cc1C (atropisomer, axis not shown) [compound of Formula (III)]
Found: 30 to 60 min

* * *

Assay: Phase 1 first-in-human study, plasma pharmacokinetics
Type: in vivo
Settings: both sexes, human, plasma, po, 200 mg, 200 mg QD oral solution, fed, Day 10; read-out: t1/2, dom (converted)
assay.readout: half-life (h)
The answer is to be given in h; state only the numeric part.

Lookup: Determine its reported half-life: C=CC(=O)N[C@H]1CCC[C@H]1NC(=O)c1sc2nccc3c2c1NC(=O)N3c1cnc(CC(C)C)cc1C (atropisomer, axis not shown) [compound of Formula (III)]
Found: 1.9
